System: HL-60(TB) leukemia
Test: NCI-60 one-dose screen, 48 h
Conditions: 10 µM unless noted
About 83,000 compounds went through this panel and 20% of them were active in at least one assay; those are over-represented in the sample as a whole. Active and inactive are the calls of the source. Rule for the calls: active = growth percent below 10; inactive = the rest.
Allowed answers: active, inactive

Check out these entries, answers already filled in.
| MOLECULE | CLASS LABEL |
| --- | --- |
| COc1cc(C2CC(=O)Nc3nc(N)[se]c32)cc(OC)c1OC (stereo not given) | inactive |
| CC(=O)Cc1nsc(NC(=O)c2cc(-c3cc(Cl)ccc3Cl)oc2C)n1 | inactive |
| c1ccc2c(c1)CN(CCCN1CCOCC1)C2 | inactive |
| Oc1ccccc1/C=N/N=C\c1ccccc1Cl | inactive |
| COc1ccc(NC(=O)c2nc(-c3cc(OC)c(OC)c(OC)c3)n(-c3cccc4ccccc34)n2)cc1OC | inactive |
| COc1ccc(-c2nnc(-c3ccc4c(c3)nc(-c3ccccc3)n4C3CCCCC3)o2)cc1 | inactive |
| COC(=O)c1ccc(NC(N)=NCCC(C)(C)c2ccc(C(F)(F)F)cc2)nc1 | active |
| COc1cc2c(cc1-c1c(C)noc1C)ncc1nc(C3CCCCC3)n([C@@H](C)COC(F)F)c12 | inactive |
| COc1cc(-c2cc(-c3ccc(Nc4ncnc5cc(Cl)ccc45)cc3)nc(N3CCN(C)CC3)n2)cc(OC)c1OC | inactive |
| C=C(C)[C@@H]1CC[C@]2(C(=O)NCCNCCNCCN)CC[C@]3(C)[C@H](CC[C@@H]4[C@@]5(C)CCC(=O)C(C)(C)[C@@H]5CC[C@]43C)[C@@H]12 | active |

## Input Per the records of this test, what outcome belongs to O=C(/C=C/c1ccc(F)cc1)c1ccc(NC(=O)N2CCN(c3cc4c(cc3F)c(=O)c(C(=O)O)cn4C3CC3)CC2)cc1 ?
## Output inactive

## Input Per the records of this test, what outcome belongs to Cn1c(=O)c(F)c(Nc2ccc(I)cc2F)c2c(=O)n(C[C@@H](O)CO)cnc21 ?
## Output inactive

## Input Per the records of this test, what outcome belongs to O=C(Nc1cc(Nc2ncccc2-c2ncnc3nc[nH]c23)ccc1F)c1cc(C(F)(F)F)cc(C(F)(F)F)c1 ?
## Output active

## Input Per the records of this test, what outcome belongs to Cc1c(Cl)cccc1NC(=S)NC(=O)c1ccccc1 ?
## Output inactive

## Input Per the records of this test, what outcome belongs to N#C/C(=C\c1ccc(-c2ccccc2)o1)c1nc(-c2ccco2)cs1 ?
## Output inactive

## Input Per the records of this test, what outcome belongs to N=C(N)c1ccc(-c2ccc(-c3ccc(F)cc3)s2)s1 ?
## Output active

## Input Per the records of this test, what outcome belongs to CCCCCCCCCCOC(C)=O ?
## Output inactive

## Input Per the records of this test, what outcome belongs to C=CC[n+]1c(/C=C2\Sc3ccccc3N2C)sc(-c2ccccc2)c1-c1ccccc1 ?
## Output active

## Input Per the records of this test, what outcome belongs to CC1CCC(C)(C)c2ccccc21 (stereo not given) ?
## Output inactive

## Input Per the records of this test, what outcome belongs to CCC(=O)N1C/C(=C/c2ccc(OC)cc2)C(=O)/C(=C/c2ccc(OC)cc2)C1 ?
## Output inactive
